- experiment: compounds binding Alexa647 anti-His antibody – biochemical, small-molecule microarray, 635 nm fluorescence, artefact control for SMM control protein annotation, primary screen (AID 1128);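 note: score merges feature fluorescence with signal-to-noise for each printed compound spot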
- experimentalConditions: higher = more signal
readout: composite z-score

INSERT INTO results (compound, readout, result) VALUES
  ('CCC(CC)C(O)C1C=CC2C(=O)N(c3ccccc3)C(=O)C2N1Nc1ccccc1 (stereo not drawn)', 'composite z-score', 1.51),
  ('COC(=O)c1c2oc(c1C(=O)OC)C(=O)NC1(CCCCC1)c1cn(nn1)C[C@H](Cc1ccccc1)NC(=O)N[C@H](CO)CC2', 'composite z-score', 0.842);

Reported composite z-score for C=CCC(OC(C)=O)[C@@H]1[C@@H](N(Cc2cc3ccccc3o2)C(=O)Cc2ccc(OC)cc2)c2cc(OCCCO)ccc2N1C(=O)c1ccc2ccccc2c1 (stereo partly drawn) : what is it?
0.19

Hello, the source for this data is PubChem BioAssay, in case you need it.
